The origin of these recorded values is ChEMBL document CHEMBL1145829.

// Estrogen receptor beta (Homo sapiens) pIC50 records
Expect pIC50 as a plain number equal to -log10 of the molar concentration.

Past entries and their recorded results:
# Compound, Measured on, Reported metric, Recorded result
records = [
    ("CC1(c2ccc(OCCN3CCCC3)cc2)c2ccc(O)cc2CCN1c1ccc(Cl)cc1 (stereo not given)", "Estrogen receptor beta (Homo sapiens)", "pIC50", 6.27),
    ("Oc1ccc2c(c1)CCN(c1ccccc1)C2c1ccc(OCCN2CCCC2)cc1 (stereo not given)", "Estrogen receptor beta (Homo sapiens)", "pIC50", 6.54),
    ("CC1(c2ccc(OCCN3CCCC3)cc2)c2ccc(O)cc2CCN1c1cccc(F)c1 (stereo not given)", "Estrogen receptor beta (Homo sapiens)", "pIC50", 6.70),
    ("CC1(c2ccc(OCCN3CCCCCC3)cc2)c2ccc(O)cc2CCN1c1ccccc1 (stereo not given)", "Estrogen receptor beta (Homo sapiens)", "pIC50", 7.10),
    ("CC1(c2ccc(OCCN3CCCCC3)cc2)c2ccc(O)cc2CCN1c1ccc(Cl)cc1 (stereo not given)", "Estrogen receptor beta (Homo sapiens)", "pIC50", 6.26),
    ("CC1(c2ccc(OCCN3CCCC3)cc2)c2ccc(O)cc2CCN1c1ccc(F)cc1 (stereo not given)", "Estrogen receptor beta (Homo sapiens)", "pIC50", 7.09),
]

The compound CC(C)c1ccc(N2CCc3cc(O)ccc3C2(C)c2ccc(OCCN3CCCC3)cc2)cc1 (stereo not given) on Estrogen receptor beta (Homo sapiens): pIC50 was 5.30

Lab entry: Estrogen receptor beta (Homo sapiens) assay, compound CN(C)c1cccc(N2CCc3cc(O)ccc3C2(C)c2ccc(OCCN3CCCC3)cc2)c1 (stereo not given) , pIC50 = 5.53

Tested on Estrogen receptor beta (Homo sapiens), the item CC1(c2ccc(OCCN3CCCC3)cc2)c2ccc(O)cc2CCN1c1cccc(O)c1 (stereo not given) showed pIC50 equal to 7.48

Readout pIC50 for CC(C)c1cccc(N2CCc3cc(O)ccc3C2(C)c2ccc(OCCN3CCCCC3)cc2)c1 (stereo not given) , test system Estrogen receptor beta (Homo sapiens), was 6.31

----------
# Experiment: in vivo
# Test context: rat, po, 5 mg/kg
Response key: Met means bioavailability >= 50%; Not met means bioavailability < 50%.

# Molecule, Class label
records = [
    ("Oc1ccc2c(c1)CCN(c1ccccc1)C2c1ccc(OCCN2CCCCC2)cc1 (configuration not stated)", "Not met"),
]

Exercise: Record Cl.Oc1ccc2c(c1)CC[C@H](c1ccccc1)[C@@H]2c1ccc(OCCN2CCCC2)cc1 ; criterion: bioavailability no lower than 50%. Met?
Key: Not met

Exercise: Hi team, for CC1(c2ccc(OCCN3CCCC3)cc2)c2ccc(O)cc2CCN1c1cccc(O)c1 (configuration not stated) , is the recorded bioavailability at or above 50%?
Key: Not met

Exercise: Please check the record CC1(c2ccc(OCCN3CCCCC3)cc2)c2ccc(O)cc2CCN1c1ccccc1 (configuration not stated) and state if its bioavailability is at or above 50%.
Key: Not met

Exercise: Tell me whether bioavailability is at least 50% here: Oc1ccc2c(c1)CCN(c1ccccc1)C2c1ccc(OCCN2CCCC2)cc1 (configuration not stated)
Key: Met

Exercise: Is it the case that CC1(c2ccc(OCCN3CCCCC3)cc2)c2ccc(O)cc2CCN1c1ccc(F)cc1 (configuration not stated) has bioavailability reaching or exceeding 50%?
Key: Met

Exercise: Entry CC1(c2ccc(OCCN3CCCC3)cc2)c2ccc(O)cc2CCN1c1ccc(F)cc1 (configuration not stated) : is its bioavailability no less than 50%?
Key: Met

----------
# Experiment: Total clearance value was tested after peroral administration (5 mg/kg ) in conscious rat
# Type: ADME, organism-based
# Test context: in vivo, po
Please note: CL/F exactly at 60 mL/min/kg is Condition not met. Only values below 60 mL/min/kg get Condition met.

Exercise: Below 60 mL/min/kg on CL/F? Entry Cl.O=C(c1ccc(OCCN2CCCCC2)cc1)c1c(-c2ccc(O)cc2)sc2cc(O)ccc12 [RALOXIFENE HYDROCHLORIDE]
Key: Condition not met

Exercise: Please state whether CL/F is below 60 mL/min/kg for Oc1ccc2c(c1)CCN(c1ccccc1)C2c1ccc(OCCN2CCCC2)cc1 (stereo not drawn)
Key: Condition met

Exercise: is_below(CL/F, 60 mL/min/kg) for CC1(c2ccc(OCCN3CCCCC3)cc2)c2ccc(O)cc2CCN1c1ccc(F)cc1 (stereo not drawn) ?
Key: Condition not met

Exercise: Regarding CC1(c2ccc(OCCN3CCCC3)cc2)c2ccc(O)cc2CCN1c1cccc(O)c1 (stereo not drawn) , kindly confirm whether its CL/F is beneath 60 mL/min/kg.
Key: Condition not met

Exercise: # TODO verify CL/F < 60 mL/min/kg strictly for this molecule: CC1(c2ccc(OCCN3CCCC3)cc2)c2ccc(O)cc2CCN1c1ccc(F)cc1 (stereo not drawn)
Key: Condition met

Exercise: Please check: CL/F for CC1(c2ccc(OCCN3CCCCC3)cc2)c2ccc(O)cc2CCN1c1ccccc1 (stereo not drawn) , strictly under 60 mL/min/kg or not?
Key: Condition not met

Exercise: Record Cl.Oc1ccc2c(c1)CC[C@H](c1ccccc1)[C@@H]2c1ccc(OCCN2CCCC2)cc1 : is its CL/F strictly below 60 mL/min/kg?
Key: Condition met

Exercise: Report whether reported CL/F is lower than 60 mL/min/kg (strictly) for Oc1ccc2c(c1)CCN(c1ccccc1)C2c1ccc(OCCN2CCCCC2)cc1 (stereo not drawn)
Key: Condition met

----------
Measurement record for MCF7; quantity recorded: Agonism.
Your answer is read as %, so omit the unit and give the number.

# Molecule, Agonism / %
records = [
    ("CC1(c2ccc(OCCN3CCCCC3)cc2)c2ccc(O)cc2CCN1c1ccccc1 (stereo not given)", 13),
]

So the reported Agonism for CC(C)c1ccc(N2CCc3cc(O)ccc3C2(C)c2ccc(OCCN3CCCC3)cc2)cc1 (stereo not given) , on MCF7, turned out to be 10

Observed Agonism, MCF7, CN(C)c1cccc(N2CCc3cc(O)ccc3C2(C)c2ccc(OCCN3CCCCC3)cc2)c1 (stereo not given) : 18

Bench note, MCF7: entry CC1(c2ccc(OCCN3CCCCC3)cc2)c2ccc(O)cc2CCN1c1cccc(O)c1 (stereo not given) , its Agonism = 10

I looked up CC1(c2ccc(OCCN3CCCC3)cc2)c2ccc(O)cc2CCN1c1ccc(F)cc1 (stereo not given) and its Agonism for MCF7 was 16

The reported MCF7 Agonism of Cc1ccc(N2CCc3cc(O)ccc3C2(C)c2ccc(OCCN3CCCC3)cc2)cc1 (stereo not given) is 14

Item CC1(c2ccc(OCCN3CCCC3)cc2)c2ccc(O)cc2CCN1c1cccc(F)c1 (stereo not given) ; assay system MCF7; Agonism reported as 5

For CC1(c2ccc(OCCN3CCCCC3)cc2)c2ccc(O)cc2CCN1c1ccc(F)cc1 (stereo not given) on MCF7, measured Agonism was 13

Agonism for MCF7 with input Oc1ccc2c(c1)CCN(c1ccccc1)C2c1ccc(OCCN2CCCC2)cc1 (stereo not given) equals 34

Observed Agonism, MCF7, CC1(c2ccc(OCCN3CCCC3)cc2)c2ccc(O)cc2CCN1c1cccc(O)c1 (stereo not given) : 15

Summary line: CC1(c2ccc(OCCN3CCCCC3)cc2)c2ccc(O)cc2CCN1c1ccc(Cl)cc1 (stereo not given) , MCF7, reported Agonism = 8

Measured Agonism (MCF7), entry CC(C)c1ccc(N2CCc3cc(O)ccc3C2(C)c2ccc(OCCN3CCCCC3)cc2)cc1 (stereo not given) : 14

----------
The compounds below have reported IC50 for Estrogen receptor (Homo sapiens, UniProt P03372).
Field format: number, assumed µM, no unit text.

# Compound, Units of measure, IC50
records = [
    ("CC(C)c1cccc(N2CCc3cc(O)ccc3C2(C)c2ccc(OCCN3CCCCC3)cc2)c1 (stereo not drawn)", "µM", 0.046),
]

Field IC50 (entry CC1(c2ccc(OCCN3CCCC3)cc2)c2ccc(O)cc2CCN1c1cccc(Cl)c1 (stereo not drawn) ) reads 0.066

Entry Oc1ccc2c(c1)CCN(c1ccccc1)C2c1ccc(OCCN2CCCC2)cc1 (stereo not drawn) ; IC50 = 0.021

IC50 reading for CC1(c2ccc(OCCN3CCCC3)cc2)c2ccc(O)cc2CCN1c1cccc(F)c1 (stereo not drawn) : 0.039

Per the records, this compound ( CC(C)c1ccc(N2CCc3cc(O)ccc3C2(C)c2ccc(OCCN3CCCCC3)cc2)cc1 (stereo not drawn) ) has IC50 equal to 0.071

Value of IC50 reported for the compound CC1(c2ccc(OCCN3CCCCC3)cc2)c2ccc(O)cc2CCN1c1cccc(O)c1 (stereo not drawn) is 0.034

Entry CC(C)c1ccc(N2CCc3cc(O)ccc3C2(C)c2ccc(OCCN3CCCC3)cc2)cc1 (stereo not drawn) — recorded IC50 = 0.044

// recorded IC50 for CN(C)c1cccc(N2CCc3cc(O)ccc3C2(C)c2ccc(OCCN3CCCCC3)cc2)c1 (stereo not drawn) : 0.071
